species: Rattus norvegicus; test: DrugMatrix - Regimen: Daily Repeat; type: toxicity, organism-based, Sprague-Dawley; set-up: regimen Daily Repeat, gender Male, age 6-8 weeks; conditions: in vivo, po, 0 mg/kg, 72 h, tissue Blood, route oral GAVAGE, dose level Control, time 3 day, […]
measurementName: ERYTHROCYTE COUNT (x10E6/uL)
Respond with the bare value in x10E6/uL.

Data request, read-out ERYTHROCYTE COUNT, for O=C(O)Cc1ccccc1Nc1c(Cl)cccc1Cl
5.53

Data request, read-out ERYTHROCYTE COUNT, for COc1ccc2[nH]c([S+]([O-])Cc3ncc(C)c(OC)c3C)nc2c1 (stereo unspecified)
5.61

Data request, read-out ERYTHROCYTE COUNT, for CC(C)(Oc1ccc(C2CCCc3ccccc32)cc1)C(=O)O (stereo unspecified)
5.31

Data request, read-out ERYTHROCYTE COUNT, for CC(=O)Nc1cccc(O)c1
5.51

Data request, read-out ERYTHROCYTE COUNT, for COCCOC(=O)C1=C(C)NC(C)=C(C(=O)OC(C)C)C1c1cccc([N+](=O)[O-])c1 (stereo unspecified)
5.43

Data request, read-out ERYTHROCYTE COUNT, for S=C=Nc1cccc2ccccc12 [1-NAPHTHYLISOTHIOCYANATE]
5.26

Data request, read-out ERYTHROCYTE COUNT, for C[C@]12CC[C@@H]3c4ccc(O)cc4CC[C@H]3[C@@H]1CC[C@@H]2O
5.6

Data request, read-out ERYTHROCYTE COUNT, for CC/C(=C(/CC)c1ccc(O)cc1)c1ccc(O)cc1
5.08

Data request, read-out ERYTHROCYTE COUNT, for CCCCCCCCc1ccc(O)cc1
5.87

Data request, read-out ERYTHROCYTE COUNT, for CC(=O)Nc1ccc(O)cc1
5.2

Data request, read-out ERYTHROCYTE COUNT, for C[C@H]1O[C@@H](O[C@H]2[C@@H](O)C[C@H](O[C@H]3[C@@H](O)C[C@H](O[C@H]4CC[C@@]5(C)[C@H](CC[C@@H]6[C@@H]5CC[C@]5(C)[C@@H](C7=CC(=O)OC7)CC[C@]65O)C4)O[C@@H]3C)O[C@@H]2C)C[C@H](O)[C@@H]1O
5.44

Data request, read-out ERYTHROCYTE COUNT, for CCOC(=O)C1=C(C)NC(C)=C(C(=O)OC)C1c1cccc([N+](=O)[O-])c1 (stereo unspecified)
5.43

Data request, read-out ERYTHROCYTE COUNT, for CCOC(=O)C(C)(C)Oc1ccc(Cl)cc1 [CLOFIBRATE]
5.2

Data request, read-out ERYTHROCYTE COUNT, for CC(C)Cc1ccc(C(C)C(=O)O)cc1 (stereo unspecified)
5.03

Data request, read-out ERYTHROCYTE COUNT, for Cc1cccc(Nc2ccncc2S(=O)(=O)NC(=O)NC(C)C)c1 [TORSEMIDE]
5.6

Data request, read-out ERYTHROCYTE COUNT, for Clc1ccc(Cl)cc1
6.82
